System: DNA
PROTOCOL DETAILS: ELISA fixation of biotinylated peptides on sensitized plates
Format: binding
ASSAY CONTEXT: ELISA plates sensitized with DNA; read-out: avidity: quantity of peptides necessary to obtain 50% fixation, DNA
pEC50: −log10 of the molar value.
Each record here notes measured pEC50.
TEST READOUT: pEC50

- SUBSTANCE: "VKRGLKLVRRSGRVVVPAAPRNRD [compound 9]"
  TARGET SYSTEM: "DNA"
  BOUND TYPE: "="
  REPORTED: 5.43
- SUBSTANCE: "RGVRPRVTRMDVRHVRPRVTRMDV [compound 15]"
  TARGET SYSTEM: "DNA"
  BOUND TYPE: "="
  REPORTED: 5.52
- SUBSTANCE: "KSRKKSRK [compound 19]"
  TARGET SYSTEM: "DNA"
  BOUND TYPE: "<"
  REPORTED: 4.13
- SUBSTANCE: "RQKYNKRAMDY [compound 4]"
  TARGET SYSTEM: "DNA"
  BOUND TYPE: "="
  REPORTED: 5.40
- SUBSTANCE: "VKRGLKLRQKYNKRAMDY [compound 5]"
  TARGET SYSTEM: "DNA"
  BOUND TYPE: "="
  REPORTED: 6.96
- SUBSTANCE: "VKRGLKL [compound 1]"
  TARGET SYSTEM: "DNA"
  BOUND TYPE: "<"
  REPORTED: 4.00
- SUBSTANCE: "VRRSGRVVVPAAPRNRD [compound 8]"
  TARGET SYSTEM: "DNA"
  BOUND TYPE: "<"
  REPORTED: 3.82
- SUBSTANCE: "LRKRLLRD [compound 17]"
  TARGET SYSTEM: "DNA"
  BOUND TYPE: "<"
  REPORTED: 3.82
- SUBSTANCE: "VKRGLKLTYYSDTVKGRFTRQYNKRA [compound 7]"
  TARGET SYSTEM: "DNA"
  BOUND TYPE: "="
  REPORTED: 7.30
- SUBSTANCE: "RKGFYKRKQCKP [compound 20]"
  TARGET SYSTEM: "DNA"
  BOUND TYPE: "="
  REPORTED: 7.05
- SUBSTANCE: "RHVRPRVTRMDVVKRGLKLRHVRPRVTRMDV [compound 16]"
  TARGET SYSTEM: "DNA"
  BOUND TYPE: "="
  REPORTED: 7.72
- SUBSTANCE: "TYYSDTVKGRFTRQKYNKRA [compound 6]"
  TARGET SYSTEM: "DNA"
  BOUND TYPE: "="
  REPORTED: 6.72
- SUBSTANCE: "VKRGLKLVKRGLKL [compound 2]"
  TARGET SYSTEM: "DNA"
  BOUND TYPE: "="
  REPORTED: 5.66
- SUBSTANCE: "GRPRESGKKRKRKRLKP [compound 21]"
  TARGET SYSTEM: "DNA"
  BOUND TYPE: "="
  REPORTED: 6.70
- SUBSTANCE: "VKRGLKLVKRGLKLVKRGLKL [compound 3]"
  TARGET SYSTEM: "DNA"
  BOUND TYPE: "="
  REPORTED: 7.30
